# System: Candida albicans
# Protocol description: Antifungal activity against Candida albicans NCIM-3471 by standard agar method
# Format: functional
// boundary case: MIC equal to 100 µg/mL maps to 0; strictly smaller maps to 1

{"columns": ["Compound", "Label value"],
 "data": [
  ["OC(Cn1cncn1)(Cn1cncn1)c1ccc(F)cc1F", 1],
  ["CC1(C)CC(=O)C2=C(C1)n1c(=O)c3ccccc3c(=O)n1C2c1cc2ccccc2nc1Cl (stereo not drawn)", 0],
  ["COc1ccc2c(c1)cc(C1C3=C(CC(C)(C)CC3=O)n3c(=O)c4ccccc4c(=O)n31)c1nnnn12 (stereo not drawn)", 0],
  ["Cc1ccc2c(c1)cc(C1C3=C(CC(C)(C)CC3=O)n3c(=O)c4ccccc4c(=O)n31)c1nnnn12 (stereo not drawn)", 1],
  ["COc1ccc2nc(Cl)c(C3C4=C(CC(C)(C)CC4=O)n4c(=O)c5ccccc5c(=O)n43)cc2c1 (stereo not drawn)", 1],
  ["COc1ccc2cc(C3C4=C(CC(C)(C)CC4=O)n4c(=O)c5ccccc5c(=O)n43)c3nnnn3c2c1 (stereo not drawn)", 0],
  ["CC1(C)CC(=O)C2=C(C1)n1c(=O)c3ccccc3c(=O)n1C2c1cc2ccccc2n2nnnc12 (stereo not drawn)", 0],
  ["Cc1ccc2cc(C3C4=C(CC(C)(C)CC4=O)n4c(=O)c5ccccc5c(=O)n43)c(Cl)nc2c1 (stereo not drawn)", 0],
  ["Cc1cccc2cc(C3C4=C(CC(C)(C)CC4=O)n4c(=O)c5ccccc5c(=O)n43)c3nnnn3c12 (stereo not drawn)", 0],
  ["Cc1ccc2cc(C3C4=C(CC(C)(C)CC4=O)n4c(=O)c5ccccc5c(=O)n43)c3nnnn3c2c1 (stereo not drawn)", 1],
  ["Cc1cccc2cc(C3C4=C(CC(C)(C)CC4=O)n4c(=O)c5ccccc5c(=O)n43)c(Cl)nc12 (stereo not drawn)", 1],
  ["COc1ccc2cc(C3C4=C(CC(C)(C)CC4=O)n4c(=O)c5ccccc5c(=O)n43)c(Cl)nc2c1 (stereo not drawn)", 1],
  ["Cc1ccc2nc(Cl)c(C3C4=C(CC(C)(C)CC4=O)n4c(=O)c5ccccc5c(=O)n43)cc2c1 (stereo not drawn)", 0]
]}
